Source of measurements: the supplement of paper PMC7125110

Each entry below carries its recorded self-cleavage kobs at 2500 uM GlcN6P.
B1: glmS ribozyme (parent)
chain: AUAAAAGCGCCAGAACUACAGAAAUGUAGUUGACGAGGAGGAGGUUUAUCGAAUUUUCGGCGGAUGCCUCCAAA

# Variants of: B1
# experiment: self-cleavage kobs at 2500 uM GlcN6P; higher = faster cleavage; RNA array
# condition label: with glucosamine-6-phosphate
Fewer inactive variants are shown than the library holds.
Numbers only here, please. The scale is s⁻¹.

Examples with answers:
* C70G | 0.000576
* G29U C58G C71A | 0.000118
* C16G | 0.01
* A12U U57C | 0.000638
* G40A U55A | 0.000842

Item G37A A53U has what recorded self-cleavage kobs at 2500 uM GlcN6P?
0.000924

Item A14G G37A U54A has what recorded self-cleavage kobs at 2500 uM GlcN6P?
0.00178

Item A15C U54G has what recorded self-cleavage kobs at 2500 uM GlcN6P?
0.00205

Item G32U C70G has what recorded self-cleavage kobs at 2500 uM GlcN6P?
5.3e-05

Item A14G G43U has what recorded self-cleavage kobs at 2500 uM GlcN6P?
6.85e-05
